cell viability overview
Tested on: HCI01 (cells of a triple-negative basal-like breast cancer xenograft)
method: cell viability (% of vehicle); higher = less cytotoxic;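 note: PDX cells carrying CMV promoter-driven luciferase, viability read as total photon flux per second by IVIS imaging following D-luciferin, vehicle control 0.1% DMSO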
recordedConditions: 10 µM; 72 h
// return just the number, without any unit appended

Here is how some molecules turned out for cell viability.
molecule	cell viability
CC(C)(C)NCC(O)COc1nsnc1N1CCOCC1.O=C(O)C=CC(=O)O (stereo not given) [Timolol Maleate]	116
CS(=O)(=O)O.OC(CCN1CCCCC1)(c1ccccc1)c1ccccc1 [Pridinol Methanesulfonate]	113
O=c1ncnc2[nH][nH]cc1-2	111
CC(=O)O.NC(N)=NN=Cc1c(Cl)cccc1Cl [Guanabenz Acetate]	134

Inquiry: Report cell viability for Cl.c1ccc(CC2=NCCN2)cc1 [Tolazoline HCl] tested on HCI01.
Reply text: 94.2

###

System: WHIM2 (cells of a triple-negative basal-like breast cancer xenograft)
method: cell viability (% of vehicle); higher = less cytotoxic
recordedConditions: 10 µM; 72 h
Counter-ions that a name gives are not always drawn.
endpointLabel: cell viability
// return just the number, without any unit appended

Here is how some molecules turned out for cell viability.
molecule	cell viability
CCC1(c2ccccc2)C(=O)NCNC1=O [Primidone]	100
COC(=O)C1=C(C)NC(C)=C(C(=O)OCC(C)C)C1c1ccccc1[N+](=O)[O-] (configuration not stated) [Nisoldipine]	88.6
CC1(C)SC2C(NC(=O)C(N)c3ccccc3)C(=O)N2C1C(=O)O.O.O.O (configuration not stated) [Ampicillin Trihydrate]	103
CCCc1nc2c(C)cc(-c3nc4ccccc4n3C)cc2n1Cc1ccc(-c2ccccc2C(=O)O)cc1 [Telmisattan]	85
C=C[C@]1(C)C[C@@H](OC(=O)CSC(C)(C)CNC(=O)[C@H](N)C(C)C)[C@]2(C)[C@H](C)CC[C@]3(CCC(=O)[C@H]32)[C@@H](C)[C@@H]1O [Valnemulin HCl]	102

Inquiry: Find the recorded cell viability belonging to COc1cc2nccc(Oc3ccc(NC(=O)C4(C(=O)Nc5ccc(F)cc5)CC4)cc3)c2cc1OC.O=C(O)CC(O)C(=O)O [Cabozantinib malate (XL184)] and report it.
Reply text: 105

Inquiry: Find the recorded cell viability belonging to CCCC(CCC)C(=O)O.CCCC(CCC)C(=O)[O-].[Na+] [Divalproex Sodium] and report it.
Reply text: 80.1

###

System: HCI13 (cells of an ER-positive luminal breast cancer xenograft)
method: cell viability (% of vehicle); higher = less cytotoxic
recordedConditions: 10 µM; 72 h
cell viability overview
// return just the number, without any unit appended

Here is how some compounds turned out for cell viability.
compound	targetOfAssay	endpointLabel	dataValue
Cc1c(-c2cnccn2)ssc1=S [Oltipraz]	HCI13	cell viability	89.8
CCCCC(=O)OC1CCC2C3CCc4cc(O)ccc4C3CCC12C (centres undefined) [Estradiol valerate]	HCI13	cell viability	182
CC(C)(C)NCC(O)COc1cccc2c1CCC(O)=N2.Cl (centres undefined) [Carteolol HCl]	HCI13	cell viability	123
CCN(CC)CCCC(C)Nc1ccnc2cc(Cl)ccc12.O=P(O)(O)O.O=P(O)(O)O (centres undefined) [Chloroquine diphosphate]	HCI13	cell viability	142
Nc1nccs1 [Aminothiazole]	HCI13	cell viability	98.3

Inquiry: Find the recorded cell viability belonging to CC(=O)c1c(C)c2cnc(Nc3ccc(N4CCNCC4)cn3)nc2n(C2CCCC2)c1=O.O=S(=O)(O)CCO and report it.
Reply text: 179

Inquiry: Find the recorded cell viability belonging to NC(=O)C1CCCc2c1[nH]c1ccc(Cl)cc21 (centres undefined) and report it.
Reply text: 148

Inquiry: Find the recorded cell viability belonging to O=C(O)CCc1nc(-c2ccccc2)c(-c2ccccc2)o1 [Oxaprozin] and report it.
Reply text: 108

Inquiry: Find the recorded cell viability belonging to CC1(C)Cc2c(-c3ccccc3)c(-c3ccc(Cl)cc3)c(CC(=O)O)n2C1 [Licofelone] and report it.
Reply text: 84.6

###

Tested on: HCI11 (cells of an ER-positive luminal breast cancer xenograft)
method: cell viability (% of vehicle); higher = less cytotoxic
recordedConditions: 10 µM; 72 h
Under this convention, true (1) denotes cell viability strictly below 100 and false (0) denotes cell viability at or above 100.

Inquiry: I wonder whether COc1cc2nc(N3CCN(C(=O)C4COc5ccccc5O4)CC3)nc(N)c2cc1OC.CS(=O)(=O)O (stereo not given) [Doxazosin Mesylate] has cell viability below 100. Can you tell?
Reply text: true (1)

Inquiry: I wonder whether S=C(NCc1ccc2c(c1)OCO2)N1CCN(c2ncnc3c2oc2ccccc23)CC1 has cell viability below 100. Can you tell?
Reply text: true (1)

Inquiry: I wonder whether CC(CN1CC(=O)NC(=O)C1)N1CC(=O)NC(=O)C1 (stereo not given) has cell viability below 100. Can you tell?
Reply text: true (1)

###

Test system: WHIM30 (cells of a triple-negative basal-like breast cancer xenograft)
method: cell viability (% of vehicle); higher = less cytotoxic
recordedConditions: 10 µM; 72 h
Under this convention, satisfied denotes cell viability strictly below 100 and not satisfied denotes cell viability at or above 100.

Inquiry: I wonder whether CCOC(=O)CC(=O)N1CCSC1COc1ccccc1OC (stereo not given) has cell viability below 100. Can you tell?
Reply text: not satisfied

Inquiry: I wonder whether NNC(=O)c1ccncc1.Nc1ccc(C(=O)O)c(O)c1 has cell viability below 100. Can you tell?
Reply text: not satisfied

Inquiry: I wonder whether CCCC1CC(C(=O)NC(C(C)Cl)C2OC(SC)C(O)C(O)C2O)N(C)C1.Cl (stereo not given) [Clindamycin HCl] has cell viability below 100. Can you tell?
Reply text: not satisfied

###

Test system: HCI09 (cells of a triple-negative luminal androgen receptor type breast cancer xenograft)
method: cell viability (% of vehicle); higher = less cytotoxic
recordedConditions: 10 µM; 72 h
Under this convention, TRUE denotes cell viability strictly below 90 and FALSE denotes cell viability at or above 90.

compound	className
CCCc1nn(C)c2c(=O)nc(-c3cc(S(=O)(=O)N4CCN(C)CC4)ccc3OCC)[nH]c12.O=C(O)CC(O)(CC(=O)O)C(=O)O [Sildenafil Citrate]	FALSE
Cl.O=C1c2cccc3c2C(CCC3)CN1C1CN2CCC1CC2 (stereo not drawn) [Palonosetron HCl]	FALSE
Cc1ccsc1C(=CCCN1CCC[C@@H](C(=O)O)C1)c1sccc1C [Tiagabine]	FALSE
CCN(CC)CCOC(=O)c1ccc(N)cc1	FALSE
COc1cc(C2Oc3cc(C4Oc5cc(O)cc(O)c5C(=O)C4O)ccc3OC2CO)ccc1O (stereo not drawn)	FALSE
OCC(CO)NC1CC(O)(CO)C(O)C(O)C1O (stereo not drawn)	FALSE
CS(=O)(=O)c1ccc(C(=O)Nc2ccc(Cl)c(-c3ccccn3)c2)c(Cl)c1	TRUE
Cl.O=C(O)C=Cc1ccc(Cn2ccnc2)cc1 [Ozagrel HCl]	FALSE
CC(C)C(N)C(=O)OCCOCn1cnc2c(=O)nc(N)[nH]c21.Cl (stereo not drawn) [Valaciclovir HCl]	FALSE
COC1C(OC(N)=O)C(O)C(Oc2ccc3c(O)c(NC(=O)c4ccc([O-])c(CC=C(C)C)c4)c(=O)oc3c2C)OC1(C)C.[Na+] (stereo not drawn) [Novobiocin Sodium]	FALSE

Inquiry: I wonder whether CC(O)C1C(=O)N2C(C(=O)OCOC(=O)C(C)(C)C)=C(SC3CN(C4=NCCS4)C3)C(C)C12 (stereo not drawn) has cell viability below 90. Can you tell?
Reply text: FALSE

Inquiry: I wonder whether C[C@H]1O[C@@H](O[C@H]2[C@@H](O)C[C@H](O[C@H]3[C@@H](O)C[C@H](O[C@H]4CC[C@@]5(C)[C@H](CC[C@@H]6[C@@H]5C[C@@H](O)[C@]5(C)[C@@H](C7=CC(=O)OC7)CC[C@]65O)C4)O[C@@H]3C)O[C@@H]2C)C[C@H](O)[C@@H]1O has cell viability below 90. Can you tell?
Reply text: TRUE

Inquiry: I wonder whether Cc1nc2n(c(=O)c1CCN1CCC(c3noc4cc(F)ccc34)CC1)CCCC2 has cell viability below 90. Can you tell?
Reply text: FALSE

Inquiry: I wonder whether Cc1ccc(-n2nc(C(C)(C)C)cc2NC(=O)Nc2ccc(OCCN3CCOCC3)c3ccccc23)cc1 has cell viability below 90. Can you tell?
Reply text: FALSE

Inquiry: I wonder whether NCCCC(O)(P(=O)([O-])O)P(=O)(O)O.[Na+] [Alendronate sodium] has cell viability below 90. Can you tell?
Reply text: FALSE

Inquiry: I wonder whether COc1ccccc1OCC(O)CO (stereo not drawn) has cell viability below 90. Can you tell?
Reply text: FALSE

Inquiry: I wonder whether CCCSc1nc(NC2CC2c2ccc(F)c(F)c2)c2nnn(C3CC(OCCO)C(O)C3O)c2n1 (stereo not drawn) has cell viability below 90. Can you tell?
Reply text: TRUE

###

Tested on: HCI16 (cells of a triple-negative basal-like breast cancer xenograft)
method: cell viability (% of vehicle); higher = less cytotoxic
recordedConditions: 10 µM; 72 h
endpointLabel: cell viability
// return just the number, without any unit appended

Here is how some compounds turned out for cell viability.
compound	cell viability
CC(CN1CC(=O)NC(=O)C1)N1CC(=O)NC(=O)C1.Cl (centres undefined) [Dexrazoxane HCl (ICRF-187, ADR-529)]	84.2
COc1ccc2[n-]c(S(=O)Cc3ncc(C)c(OC)c3C)nc2c1.COc1ccc2[n-]c(S(=O)Cc3ncc(C)c(OC)c3C)nc2c1.[Mg+2] (centres undefined)	112

Inquiry: Find the recorded cell viability belonging to CCn1cc(C(=O)O)c(=O)c2cnc(N3CCCC3)nc21 and report it.
Reply text: 125

Inquiry: Find the recorded cell viability belonging to Nc1nc(CC(=O)Nc2ccc(CCNCC(O)c3ccccc3)cc2)cs1 (centres undefined) and report it.
Reply text: 137

Value source: the supplement of paper PMC6992640
